# maps each entry to its IC50
biological target: Virion infectivity factor (Human immunodeficiency virus type 1 group M subtype B (isolate BH10)) + Virion infectivity factor (Human immunodeficiency virus type 1 group M subtype B (isolate BRU/LAI)) + Virion infectivity factor (Human immunodeficiency virus type 1 group M subtype B (isolate PCV12)) + Virion infectivity factor (Human immunodeficiency virus type 1 group M subtype B (isolate HXB2)) + DNA dC->dU-editing enzyme APOBEC-3G (Homo sapiens) (UniProt P69720+P69721+P69722+P69723+Q9HC16); assay: HIV-1 Vif–A3G interaction blockers – biochemical, TR-FRET, GST-Vif 1-94, biotin-A3G peptide, dose response retest, primary screen (AID 1117319); conditions: TR-FRET GST-Vif / biotin-A3G peptide binding;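 note: Vif residues 1-94 fused to GST binding biotinylated APOBEC3G peptide 110-148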
Results filed as inconclusive are left out.
endpoint.name: IC50

compound	recorded.measurement
Cc1ccc2c(c1)c1ccc3c(c1n2C)C(=O)C=CC3=O	3.94 µM
Cn1cccc1/C=C1\C(=O)NC(=O)N(Cc2ccco2)C1=O	9.46 µM
CCC(=Nc1ccc(N)cc1)C1=C(O)C(C(=O)OC)C(C)(C)CC1=O (stereo unspecified)	2.01 µM
COc1cccc(-c2nn3c(-c4ccccn4)nnc3s2)c1	81.3 µM
Cc1ccc(C(=O)N/N=C\c2cc(Br)c(Br)o2)cn1	6.24 µM
COc1ccccc1-n1c(SCC(=O)NCc2ccc3c(c2)OCO3)nc2cc([N+](=O)[O-])ccc21	22.7 µM
CC1=C(C#N)C(=O)N(C2CCS(=O)(=O)C2)C(=O)/C1=C\c1ccc(C)o1 (stereo unspecified)	1.42 µM
Cc1cc(C)nc(N/N=C/C2=C(N3CCOCC3)C(=C\c3ccc(Cl)cc3)/CC2)n1	13.3 µM
CCOC(=O)Cn1nnnc1C(C(C)C)N(Cc1cc2c(C)cc(C)cc2[nH]c1=O)C1CCCC1 (stereo unspecified)	46 µM
COc1cccc(C=Nc2cc(C(C)C)c(O)cc2C)c1O	34.2 µM
CC(=O)c1sc(C(=O)O)c(-c2ccco2)c1-c1ccco1	9.78 µM
Cc1cc(SCC(=O)N/N=C/c2ccc(O)c(O)c2O)c(C)cc1Br	13.3 µM
CCOC(=O)C1=C(O)/C(=C\c2ccc(CNC(=O)C(=O)Nc3ccccc3)o2)N=C1C	1.86 µM
CCN(CC)c1ccc(C2NC(=O)NC(C)=C2C(=O)Nc2ccccc2)cc1 (stereo unspecified)	84.4 µM
O=C(NCCN1CCN(c2ccccc2)CC1)C1CCN(S(=O)(=O)c2cccc3nonc23)CC1	43 µM
CC1(C)CC(=O)C2=C(C1)NCN(Cc1ccc3c(c1)OCO3)C2	91.6 µM
CC(=O)NC1=NC(=O)/C(=C/c2cc(C)n(-c3cccc(C(=O)O)c3)c2C)S1	7.28 µM
O=C(Nc1ccc(F)cc1F)c1noc2c1CCC2	12.8 µM
COC(=O)CCCC(=O)Nc1c(F)c(F)c(F)c(F)c1F	24.3 µM
CCN1CCc2c(C#N)c(NCc3ccccc3)nc(N(CC)CC)c2C1	62.8 µM
O=c1cc2c(=O)oc3cc(O)c(O)oc3c2c(O)c1O	1.68 µM
O=C1CC(SC(=S)C2CCCC2=O)C(=O)N1 (stereo unspecified)	27.8 µM
O=S(=O)(O)c1cc(O)c2ccc(Nc3ccccc3)cc2c1	1.38 µM
COc1ccc(CN2C(=O)NC(=O)/C(=C/c3ccc([N+](=O)[O-])s3)C2=O)cc1	14.5 µM
O=C(O)C(Cc1ccccc1)N1C(=O)/C(=C/C=C/c2ccco2)SC1=S (stereo unspecified)	2.11 µM
CN(C)c1ccc(C=c2c3cc([N+](=O)[O-])ccc3n3c2cc(-c2ccccc2)[n+]3C)cc1	3.58 µM
Oc1ccccc1/C=N/c1c(-c2ccco2)nc2ccccn12	0.48 µM
Cc1ccc(NC(=O)CN(C)C(=O)c2cccc(-n3cccc3)c2)cc1	4.56 µM
CCCCN1C(=O)/C(=C/C=C/c2ccco2)C(=O)NC1=S	4.61 µM
N#Cc1ccc(CSc2nnc(Cc3cccs3)n2Cc2ccco2)cc1	46.5 µM
CCCN1C(=O)S/C(=C\c2ccc(N3CCOCC3)cc2C)C1=O	23.4 µM
Cc1cccc(C)c1NC(=O)COC(=O)c1cc(-c2cccnc2)nc2ccccc12	41.4 µM
O=C(O)C[C@@H]1C(=O)O[C@@H]2C(COC(=O)c3cc(O)c(O)c(O)c3)O[C@@H](OC(=O)c3cc(O)c(O)c(O)c3)[C@@H](OC(=O)c3cc(O)c(O)c4c3[C@H]1[C@H](O)C(=O)O4)[C@H]2OC(=O)c1cc(O)c(O)c(O)c1 (stereo partly specified)	< 0.195 µM
CCOC(=O)C1=C(C)N=C2SC(C(=O)OC)=CC(=O)N2C1c1cc(OC)c(OC)c(OC)c1 (stereo unspecified)	11 µM
COc1ccc(NC(=O)CC2Nc3cccc4cccc(c34)NC2=O)cc1 (stereo unspecified)	1.21 µM
CCN1/C(=C(\O)c2ccccc2)C(=O)c2ccccc2S1(=O)=O	55 µM
CC1(C)N([O-])c2cc([N+](=O)[O-])ccc2[N+]1=O	9.68 µM
Cc1ccc(NC(=O)c2cc(-c3ccc(C)o3)nc3ccccc23)nc1	33.6 µM
O=[N+]([O-])c1ccccc1NC(=S)N/N=C/c1ccc(O)c(O)c1	4.06 µM
O=C(O)c1cc(N2N=C(C(F)(F)F)/C(=C/C=C/c3ccco3)C2=O)ccc1Cl	1.04 µM
Cc1ccc(NC(=O)CN2C(=O)N/C(=C/c3ccco3)C2=O)cc1	2 µM
